These entries and their values trace back to PubChem BioAssay (EPA / NIEHS).

molecular target: Estrogen receptor (Homo sapiens) (UniProt P03372); assay: NVS_NR_hER: NovaScreen (NVS) Nuclear Receptor Binding Assay for human Estrogen Receptor (ER) (AID 2283348)
Sequence (P03372 whole entry, looked up): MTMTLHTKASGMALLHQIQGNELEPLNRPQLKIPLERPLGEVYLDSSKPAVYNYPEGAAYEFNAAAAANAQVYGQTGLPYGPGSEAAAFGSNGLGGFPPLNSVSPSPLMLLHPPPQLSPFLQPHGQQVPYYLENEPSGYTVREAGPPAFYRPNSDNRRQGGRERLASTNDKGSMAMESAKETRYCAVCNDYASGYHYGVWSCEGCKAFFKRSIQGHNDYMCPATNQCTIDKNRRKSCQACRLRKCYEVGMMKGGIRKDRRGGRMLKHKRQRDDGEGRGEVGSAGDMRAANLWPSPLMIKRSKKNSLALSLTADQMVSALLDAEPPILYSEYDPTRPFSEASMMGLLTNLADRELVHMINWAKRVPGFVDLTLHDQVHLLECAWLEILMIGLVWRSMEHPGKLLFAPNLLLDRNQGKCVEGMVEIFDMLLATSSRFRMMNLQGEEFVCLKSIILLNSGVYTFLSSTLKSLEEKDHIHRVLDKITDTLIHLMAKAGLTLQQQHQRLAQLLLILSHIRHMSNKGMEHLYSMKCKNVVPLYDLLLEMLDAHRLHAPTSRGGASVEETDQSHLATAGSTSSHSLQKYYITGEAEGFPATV
Inconclusive results are not listed. Active and inactive are the calls of the source. Rule for the calls: active = hit-call score of the fitted dose curve at least 0.9, where 1 is the maximum; inconclusive = response in the unintended direction; inactive = score below 0.9.

[
  {
    "molecule": "CC(O)CN (stereo unspecified)",
    "AC50": "inactive"
  },
  {
    "molecule": "CC(C)(C)c1ccc(S)cc1",
    "AC50": "0.283 µM (active)"
  },
  {
    "molecule": "CN(C)CCC=C1c2ccccc2CCc2ccccc21",
    "AC50": "inactive"
  },
  {
    "molecule": "CCNC(=S)NCC",
    "AC50": "inactive"
  },
  {
    "molecule": "CC12CCC(C1)C(C)(C)C2O (stereo unspecified)",
    "AC50": "inactive"
  },
  {
    "molecule": "Nc1cc([N+](=O)[O-])ccc1C(=O)O",
    "AC50": "inactive"
  },
  {
    "molecule": "CC(C)(C)c1cccc(O)c1",
    "AC50": "inactive"
  },
  {
    "molecule": "CCc1cccc(O)c1",
    "AC50": "inactive"
  },
  {
    "molecule": "CCC(C)(C)C1CCC(=O)CC1",
    "AC50": "0.983 µM (active)"
  },
  {
    "molecule": "Cc1cccc(O)c1",
    "AC50": "inactive"
  },
  {
    "molecule": "CCC(C)(C)c1cc(O)c(C(C)(C)CC)cc1O",
    "AC50": "inactive"
  },
  {
    "molecule": "CCCCCCOc1ccc(O)cc1",
    "AC50": "12 µM (active)"
  },
  {
    "molecule": "CCCCCCCCCOS(=O)(=O)O",
    "AC50": "11.1 µM (active)"
  },
  {
    "molecule": "CC(=O)C1C(=O)C=C(C)OC1=O (stereo unspecified)",
    "AC50": "inactive"
  },
  {
    "molecule": "O=S1(=O)CC(Cl)(Cl)C(Cl)(Cl)C1",
    "AC50": "18.5 µM (active)"
  },
  {
    "molecule": "CCCc1ccc(O)cc1",
    "AC50": "inactive"
  }
]

====

read-out: Vascular cell adhesion molecule 1 (VCAM1), VCAM1 (gene 7412); test: BSK_CASM3C_VCAM1: BioMAP Diversity Plus: CASM3C Assay for Vascular cell adhesion molecule 1 (VCAM1) Biomarker Activity (AID 2283055); settings: primary human coronary artery smooth muscle cells; actives raise or lower the signal;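 note: VCAM-1 protein level quantified by ELISA on the cells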
The source made the active and inactive calls. How the source made its calls: active means hit-call score of the fitted dose curve at least 0.9, where 1 is the maximum; inactive means score below 0.9.
Outcomes: yes = active, no = inactive

[
  {
    "molecule": "C=C(C)C(=O)OCCC(F)(F)C(F)(F)C(F)(F)C(F)(F)C(F)(F)C(F)(F)C(F)(F)C(F)(F)F",
    "category": "no"
  },
  {
    "molecule": "CC1=CC(C)C(C=O)C(C)C1 (stereo unspecified) (tested in a mixture with another compound)",
    "category": "no"
  },
  {
    "molecule": "C=C1CC/C=C(\\C)CC[C@@H]2[C@@H]1CC2(C)C",
    "category": "yes"
  },
  {
    "molecule": "c1ccc(Sc2ccccc2)cc1",
    "category": "yes"
  },
  {
    "molecule": "CCOC(=O)CCCCCCCCC(=O)OCC",
    "category": "no"
  },
  {
    "molecule": "CCCCCCCC1CCCC1=O (stereo unspecified)",
    "category": "yes"
  }
]
